- protocol description: Plasma kinetics, intravenous, Sprague-Dawley rats
- Format: in vivo, female Sprague-Dawley rats
- setup conditions: female, Sprague-Dawley, rat, plasma; IV 1 mg/kg
- Protocol: CFMQ (HGT3711) was administered to fasted female Sprague-Dawley rats by a single intravenous injection at 1.0 mg/kg, formulated in 100% PEG200 (Table 2.6.5.X, Study 10SHIRUSP11). […] Plasma concentrations of CFMQ (HGT3711) were determined by LC-MS/MS and concentrations below the limit of quantitation (1 ng/mL) were assigned a value of zero for pharmacokinetic analysis. […]
measure: Tmax (h)

substance smiles	unit	measured value
Cc1cc(Cl)c(COc2cccc3c(-n4cc(F)cn4)cc(C)nc23)c(Cn2cccc(C#N)c2=O)n1	h	0
